- Substrate: vinyl butyrate
- recorded conditions: pH 7; 25 °C
assay metric: kcat/Km (M⁻¹ s⁻¹)
Give bare numbers, in M⁻¹ s⁻¹.

Q: Entry unnamed (protein) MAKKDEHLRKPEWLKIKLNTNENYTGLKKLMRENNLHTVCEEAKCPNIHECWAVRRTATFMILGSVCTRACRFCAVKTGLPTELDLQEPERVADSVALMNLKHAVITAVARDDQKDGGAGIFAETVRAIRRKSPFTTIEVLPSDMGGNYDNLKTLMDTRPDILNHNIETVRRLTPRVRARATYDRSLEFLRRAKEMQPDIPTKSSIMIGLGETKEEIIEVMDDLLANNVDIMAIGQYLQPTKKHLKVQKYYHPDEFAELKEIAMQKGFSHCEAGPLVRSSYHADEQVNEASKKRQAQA has what kcat/Km?
Result: 15900

Reference source for all entries: the PETadex activity labels (doi:10.1016/j.bbalip.2005.11.003)
